# Method Summary: AUC (0 to 24 hrs) in infants/toddlers measured on day 1 post dose
# Run Parameters: human, plasma
Measured Metric: AUC(0-t) at 24 h
Answer with the figure and its unit, nothing else.

Identify measured AUC(0-t) at 24 h associated with CC[C@H](C)C[C@H](C)CCCCCCCCC(=O)N[C@H]1C[C@@H](O)[C@@H](NCCN)NC(=O)[C@@H]2[C@@H](O)CCN2C(=O)[C@H]([C@H](O)CCN)NC(=O)[C@H]([C@H](O)[C@@H](O)c2ccc(O)cc2)NC(=O)[C@@H]2C[C@@H](O)CN2C(=O)[C@H]([C@@H](C)O)NC1=O [CASPOFUNGIN]
120 µg·h/mL

###

# Method Summary: AUC (0 to 24 hrs) in 10 […] old infants/toddlers measured on day 1 post dose
# Assay type: ADME, organism-based
# Set-up: time < 24 hr
# Run Parameters: human, plasma
Measured Metric: AUC(0-t) at 24 h

Identify measured AUC(0-t) at 24 h associated with `CC[C@H](C)C[C@H](C)CCCCCCCCC(=O)N[C@H]1C[C@@H](O)[C@@H](NCCN)NC(=O)[C@@H]2[C@@H](O)CCN2C(=O)[C@H]([C@H](O)CCN)NC(=O)[C@H]([C@H](O)[C@@H](O)c2ccc(O)cc2)NC(=O)[C@@H]2C[C@@H](O)CN2C(=O)[C@H]([C@@H](C)O)NC1=O`
160 µg·h/mL

###

# Method Summary: Cmax in plasma of adult human at 50 mg, iv dosed once daily measured on day 1 post dose
# Format: ADME, organism-based
# Design: dose 50 mg, route intravenous
Measured Metric: Cmax
Answer with the figure and its unit, nothing else.

Identify measured Cmax associated with `CC[C@H](C)C[C@H](C)CCCCCCCCC(=O)N[C@H]1C[C@@H](O)[C@@H](NCCN)NC(=O)[C@@H]2[C@@H](O)CCN2C(=O)[C@H]([C@H](O)CCN)NC(=O)[C@H]([C@H](O)[C@@H](O)c2ccc(O)cc2)NC(=O)[C@@H]2C[C@@H](O)CN2C(=O)[C@H]([C@@H](C)O)NC1=O`
7.67 µg/mL

###

# Method Summary: AUC (0 to 24 hrs) in 2-11 years old children at 50 mg/m'2, iv dosed once daily measured on day 1 post dose
# Type: ADME, organism-based
# Parameters: time < 24 hr, route intravenous
# Run Parameters: human, plasma
Measured Metric: AUC(0-t) at 24 h (ng·h/mL)
Answers are plain numbers, in ng·h/mL.

Identify measured AUC(0-t) at 24 h associated with `CC[C@H](C)C[C@H](C)CCCCCCCCC(=O)N[C@H]1C[C@@H](O)[C@@H](NCCN)NC(=O)[C@@H]2[C@@H](O)CCN2C(=O)[C@H]([C@H](O)CCN)NC(=O)[C@H]([C@H](O)[C@@H](O)c2ccc(O)cc2)NC(=O)[C@@H]2C[C@@H](O)CN2C(=O)[C@H]([C@@H](C)O)NC1=O`
96400

###

# Method Summary: AUC (0 to 24 hrs) in 20 […] old infants/toddlers measured on day 1 post dose
# Type: ADME, organism-based
# Parameters: time < 24 hr
# Run Parameters: human, plasma
Measured Metric: AUC(0-t) at 24 h (ng·h/mL)
One number for each entry, in ng·h/mL.

Identify measured AUC(0-t) at 24 h associated with `CC[C@H](C)C[C@H](C)CCCCCCCCC(=O)N[C@H]1C[C@@H](O)[C@@H](NCCN)NC(=O)[C@@H]2[C@@H](O)CCN2C(=O)[C@H]([C@H](O)CCN)NC(=O)[C@H]([C@H](O)[C@@H](O)c2ccc(O)cc2)NC(=O)[C@@H]2C[C@@H](O)CN2C(=O)[C@H]([C@@H](C)O)NC1=O`
97400

###

# Method Summary: AUC (0 to 24 hrs) in 12 […] old infants/toddlers measured on day 1 post dose
# Format: ADME, organism-based
# Design: time < 24 hr
# Run Parameters: human, plasma
Measured Metric: AUC(0-t) at 24 h
Answer with the figure and its unit, nothing else.

Identify measured AUC(0-t) at 24 h associated with CC[C@H](C)C[C@H](C)CCCCCCCCC(=O)N[C@H]1C[C@@H](O)[C@@H](NCCN)NC(=O)[C@@H]2[C@@H](O)CCN2C(=O)[C@H]([C@H](O)CCN)NC(=O)[C@H]([C@H](O)[C@@H](O)c2ccc(O)cc2)NC(=O)[C@@H]2C[C@@H](O)CN2C(=O)[C@H]([C@@H](C)O)NC1=O [CASPOFUNGIN]
109 µg·h/mL

###

# Method Summary: AUC (0 to 24 hrs) in 12-17 years old adolescents at 50 mg/m'2, iv dosed once daily measured on day 1 post dose
# Format: ADME, organism-based
# Parameters: time < 24 hr, route intravenous
# Run Parameters: human, plasma
Measured Metric: AUC(0-t) at 24 h (ng·h/mL)
Give bare numbers, in ng·h/mL.

Identify measured AUC(0-t) at 24 h associated with CC[C@H](C)C[C@H](C)CCCCCCCCC(=O)N[C@H]1C[C@@H](O)[C@@H](NCCN)NC(=O)[C@@H]2[C@@H](O)CCN2C(=O)[C@H]([C@H](O)CCN)NC(=O)[C@H]([C@H](O)[C@@H](O)c2ccc(O)cc2)NC(=O)[C@@H]2C[C@@H](O)CN2C(=O)[C@H]([C@@H](C)O)NC1=O [CASPOFUNGIN]
77600
